assay notes: in vivo
recorded conditions: BALB/c nude, mouse, ip
Measured MTD at 2 weeks by item
Write the value in mg/kg as a bare number.

Worked cases, answers included:
MTD at 2 weeks for Cc1cc2cc(-c3ccc(N(CCCCCCC(=O)NO)C(=O)N4CCN(C)CC4)cc3)ccc2[nH]1 [Compound 334] ? 60

MTD at 2 weeks for CCN1CCN(C(=O)N(CCCCCCC(=O)NO)c2ccc(-c3ccc4cnn(C)c4c3)cc2)CC1 [Compound 336] ? 80

---
MTD at 2 weeks for Cc1[nH]c2ccccc2c1CCNCc1ccc(/C=C/C(=O)NO)cc1 [LBH 589, Panobinostat, reference compound] ? 10
